- experiment: Phase 1 DDI study with ketoconazole in healthy subjects
- Format: in vivo, human
- measurement.parameters: both, human, plasma, oral, 400 mg
parameter: Vd/F
Quote the value and follow it with the unit of measurement.

Input line: What does the data say about its Vd/F? Entry: Cc1cc(C)c2c(c1)[C@@H](N(Cc1cc(C(F)(F)F)cc(C(F)(F)F)c1)c1nnn(C)n1)CCCN2C[C@H]1CC[C@H](C(=O)O)CC1 [evacetrapib]
Output line: 592 L

* * *

- experiment: Phase 1 DDI study with gemfibrozil in healthy subjects
- Format: in vivo, human
- measurement.parameters: both, human, plasma, oral
parameter: Tmax (h)
Just the number please, in h, no unit attached.

Input line: Find the recorded Tmax belonging to Cc1cc(C)c2c(c1)[C@@H](N(Cc1cc(C(F)(F)F)cc(C(F)(F)F)c1)c1nnn(C)n1)CCCN2C[C@H]1CC[C@H](C(=O)O)CC1 and report it.
Output line: 3

* * *

- Assay type: in vivo, human
- measurement.parameters: male, human, plasma, oral, 100 mg
parameter: AUC(0-t) (ng·h/mL)
Lab book: enter the figure in ng·h/mL, no units written.

Input line: For the compound Cc1cc(C)c2c(c1)[C@@H](N(Cc1cc(C(F)(F)F)cc(C(F)(F)F)c1)c1nnn(C)n1)CCCN2C[C@H]1CC[C@H](C(=O)O)CC1 [evacetrapib] , what AUC(0-t) is on record?
Output line: 6250

* * *

- experiment: Phase 1 DDI study with gemfibrozil in healthy subjects
- Assay type: in vivo, human
- measurement.parameters: both, human, plasma, oral, 130 mg
parameter: Tmax (h)
I only need the number, in h, no unit after it.

Input line: Query (compound): Cc1cc(C)c2c(c1)[C@@H](N(Cc1cc(C(F)(F)F)cc(C(F)(F)F)c1)c1nnn(C)n1)CCCN2C[C@H]1CC[C@H](C(=O)O)CC1 ; field requested: Tmax
Output line: 4

* * *

- Format: in vivo, human
- measurement.parameters: male, human, plasma, oral, 100 mg
parameter: Vd/F (L)
Form entry: value (L) — number only.

Input line: Vd/F lookup needed for Cc1cc(C)c2c(c1)[C@@H](N(Cc1cc(C(F)(F)F)cc(C(F)(F)F)c1)c1nnn(C)n1)CCCN2C[C@H]1CC[C@H](C(=O)O)CC1 , thanks.
Output line: 564

* * *

- experiment: Phase 1 DDI study with ketoconazole in healthy subjects
- Type: in vivo, human
- measurement.parameters: both, human, plasma, oral, 400 mg
parameter: half-life (h)
Quick note: give the figure in h, leave out the unit.

Input line: # half-life lookup, item Cc1cc(C)c2c(c1)[C@@H](N(Cc1cc(C(F)(F)F)cc(C(F)(F)F)c1)c1nnn(C)n1)CCCN2C[C@H]1CC[C@H](C(=O)O)CC1 [evacetrapib]
Output line: 63.2

* * *

- experiment: Phase 1 DDI study with ketoconazole in healthy subjects
- Format: in vivo, human
- measurement.parameters: both, human, plasma, oral, 100 mg
parameter: Vd/F (L)
Provide the reading as a plain figure in L.

Input line: Which measured Vd/F value corresponds to Cc1cc(C)c2c(c1)[C@@H](N(Cc1cc(C(F)(F)F)cc(C(F)(F)F)c1)c1nnn(C)n1)CCCN2C[C@H]1CC[C@H](C(=O)O)CC1 [evacetrapib] ?
Output line: 861

* * *

- experiment: Phase 1 DDI study with ketoconazole in healthy subjects
- Type: in vivo, human
- measurement.parameters: both, human, plasma, oral, 100 mg
parameter: Cmax (ng/mL)
Please reply with the bare figure in ng/mL and do not write the unit itself.

Input line: Item under review: Cc1cc(C)c2c(c1)[C@@H](N(Cc1cc(C(F)(F)F)cc(C(F)(F)F)c1)c1nnn(C)n1)CCCN2C[C@H]1CC[C@H](C(=O)O)CC1 [evacetrapib] . Reported Cmax?
Output line: 332
